Where do these numbers come from? They come from PubChem BioAssay AID624491.

Tested on: D54 ERlucT glycosylation luciferase reporter, luminescence, 24 h
Assay: N-linked glycosylation inhibitors, luciferase reporter, dose response, D54 ERlucT cells, luminescence, cherry-picks (AID 624491);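 further: signal gain reflects blocked N-linked glycosylation of a luciferase reporter; actives raise luciferase signal so AC26 marks activators of the reporter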
Each entry below lists one item and its recorded AC26 value.

compound: NC(=O)CC(NC(=O)Cc1ccc(Br)cc1)c1ccc(NCC2CC2)c([N+](=O)[O-])c1 (configuration not stated)
reported_endpoint: AC26
readout_value: 6670 nM
//
compound: CCCNS(=O)(=O)c1cccc(C(=O)OCc2cc(=O)oc3cc(OC)ccc23)c1
reported_endpoint: AC26
readout_value: 834 nM
//
compound: COc1cc(C)cc(C(=O)C=Cc2ccccc2)c1O
reported_endpoint: AC26
readout_value: 4920 nM
//
compound: CCOC(=O)c1cc2[nH]c3ccccc3c2[n+](-c2ccc([N+](=O)[O-])cc2)c1N
reported_endpoint: AC26
readout_value: 1930 nM

State the recorded AC26 for this entry: COc1ccc(C(=O)c2ccc(OC)c(N)c2)cc1N
143 nM

Ok, now COc1cccc(C(N)c2nc(-c3csc4ccccc34)cs2)c1 (configuration not stated)
3590 nM

Ok, now COc1cc2c(cc1OC)C(c1cc(Br)ccc1F)N(C(=O)CCl)CC2 (configuration not stated)
2280 nM

Ok, now O=S(=O)([N-]c1nc2ccccc2nc1-n1cc[n+](Cc2ccccc2)c1)c1ccc(Br)cc1
236 nM

Ok, now COc1ccc2nc3ccccc3nc2c1NC(=O)c1ccccc1Cl
11400 nM

Ok, now CNc1ccc(/C=C/C(=O)c2cccc3ccccc23)cc1[N+](=O)[O-]
2810 nM

Ok, now CCOc1ccc(/C=N/NC(=O)c2cc3c(OC)cccc3[nH]2)cc1
3800 nM

Ok, now O=C1N[C@H]2CC=C[C@H]2N(Cc2cccs2)c2ccccc21
895 nM

Ok, now CCC(C)C(=O)OC1CCC=C2C=CC(C)C(CCC3CC(O)CC(=O)O3)C21 (configuration not stated)
34.8 nM

Ok, now CCNc1ccc(Br)cc(C(=O)/C=C/c2ccc(Cl)cc2)c1=O
6710 nM

Ok, now CCOc1ccc(N2CCc3c(C)nc(SC)nc32)cc1
2650 nM

Ok, now O=CC1=C(c2ccccc2)Oc2ccccc2O1
10300 nM

====

Tested on: D54 ERlucT glycosylation luciferase reporter, luminescence, 24 h
Test: N-linked glycosylation inhibitors, luciferase reporter, dose response, D54 ERlucT cells, luminescence, cherry-picks (AID 624491)
reported_endpoint: AC26

molecule: Cc1ccc(/C=N/NC(=O)c2cc(-c3cccnc3)nc3ccccc23)cc1
tested_system: D54 ERlucT glycosylation luciferase reporter, luminescence, 24 h
AC26: 1.25 µM
--
molecule: CCN(CC)CCNc1ccc(C)c2sc3ccc(O)cc3c(=O)c12
tested_system: D54 ERlucT glycosylation luciferase reporter, luminescence, 24 h
AC26: 0.00774 µM
--
molecule: Cc1ccc2nc(-c3ccncc3)cc(C(=O)Nc3ccncc3)c2c1
tested_system: D54 ERlucT glycosylation luciferase reporter, luminescence, 24 h
AC26: 3.05 µM
--
molecule: CCCNc1nc2ccccc2n2c(C)nnc12
tested_system: D54 ERlucT glycosylation luciferase reporter, luminescence, 24 h
AC26: 2.98 µM
--
molecule: COc1ccccc1-c1cc(C(=O)Nc2cc(C)nn2-c2ccccc2)no1
tested_system: D54 ERlucT glycosylation luciferase reporter, luminescence, 24 h
AC26: 0.76 µM
--
molecule: CCCCc1ccc(N/C(N)=N/c2nc(C)cc(C)n2)cc1
tested_system: D54 ERlucT glycosylation luciferase reporter, luminescence, 24 h
AC26: 4.69 µM

// switching to the query molecule
# query: AC26 | item CCOC(=O)N1CCN(c2c(NCc3ccc(F)cc3)c(=O)c2=O)CC1 | system: D54 ERlucT glycosylation luciferase reporter, luminescence, 24 h
8.4 µM

====

System: D54 ERlucT glycosylation luciferase reporter, luminescence, 24 h
Experiment: N-linked glycosylation inhibitors, luciferase reporter, dose response, D54 ERlucT cells, luminescence, cherry-picks (AID 624491)
Each entry below lists one item and its recorded AC26 value.

compound: CCCCCCCCCCCCCCCCCCNc1ccn(C2OC(COP(=O)(O)OCC3OC(n4cc(F)c(=O)[nH]c4=O)CC3O)C(O)C2O)c(=O)n1 (stereo not drawn)
AC26: 3970 nM

# query: AC26 | item O=c1cc(-c2ccccc2)[nH]c2cc(F)ccc12 | system: D54 ERlucT glycosylation luciferase reporter, luminescence, 24 h
327 nM

Ok, now CN(C)c1ccc(-c2ccnc3c2CC(C)(C(=O)NCc2ccccc2)O3)cc1 (stereo not drawn)
5530 nM

Ok, now O=C1/C(=C\c2ccc(Cl)cc2)CCC1CNc1ccc(Cl)cc1 (stereo not drawn)
5490 nM

Ok, now COc1ccc(Nc2c3ccccc3nc3ccccc23)cc1
1020 nM

Ok, now O=C(/C=C/c1cn(-c2ccccc2)nc1-c1cccnc1)c1ccco1
628 nM

====

Tested on: D54 ERlucT glycosylation luciferase reporter, luminescence, 24 h
Experiment: N-linked glycosylation inhibitors, luciferase reporter, dose response, D54 ERlucT cells, luminescence, cherry-picks (AID 624491)
reported_endpoint: AC26

Use these answered entries as a reference point.
mol: Cc1cc(C)nc(SC2=CS(=O)(=O)c3ccccc32)n1
AC26: 4.21 µM

mol: CCOC(=O)[C@H]1[C@H]2COc3ccc(OC)cc3[C@@H]2N2C(=O)c3cc(OC)c(OC)cc3NC(=O)[C@@]12C
AC26: 0.3 µM

mol: CCCCNC(=O)c1cc(-c2ccc(F)cc2)on1
AC26: 3.45 µM

mol: Cc1ccc(Nc2nc(N)nc(CN3CCN(Cc4ccccc4)CC3)n2)cc1Cl
AC26: 0.11 µM

mol: O=C(N/N=C\c1cn(-c2ccccc2)nc1-c1ccccc1)c1ccc(Br)o1
AC26: 9.57 µM

// switching to the query compound
State the recorded AC26 for this entry: CCN(CC)S(=O)(=O)c1cccc(C(=O)OCC(=O)Nc2ccc3c(c2)c2ccccc2n3CC)c1
4.11 µM

====

System: D54 ERlucT glycosylation luciferase reporter, luminescence, 24 h
Test: N-linked glycosylation inhibitors, luciferase reporter, dose response, D54 ERlucT cells, luminescence, cherry-picks (AID 624491);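 further: signal gain reflects blocked N-linked glycosylation of a luciferase reporter; actives raise luciferase signal so AC26 marks activators of the reporter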
reported_endpoint: AC26

Use these answered entries as a reference point.
compound: COc1cc2c(cc1OC)C(c1cccs1)N(C(=O)c1cccnc1)CC2 (stereo not given)
readout_value: 0.806 µM

compound: Cc1nc(SCC(=O)Nc2ccc(F)cc2)c(C#N)c(C)c1CC(=O)c1ccc(Br)cc1
readout_value: 1.66 µM

compound: COc1cccc(NC(=O)CCCOc2cc(=O)n(C)c3ccccc23)c1
readout_value: 4.13 µM

compound: O=C(N/N=C/c1cccc(Br)c1)c1ccc(N2CCCC2=O)cc1
readout_value: 6.63 µM

// switching to the query compound
State the recorded AC26 for this entry: CCOC(=O)c1ccc(N=c2sc(C(=O)OC)cc(=O)n2Cc2ccco2)cc1
3.83 µM

====

Test system: D54 ERlucT glycosylation luciferase reporter, luminescence, 24 h
Test: N-linked glycosylation inhibitors, luciferase reporter, dose response, D54 ERlucT cells, luminescence, cherry-picks (AID 624491);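 further: signal gain reflects blocked N-linked glycosylation of a luciferase reporter; actives raise luciferase signal so AC26 marks activators of the reporter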
Each entry below lists one item and its recorded AC26 value.

Use these answered entries as a reference point.
compound: COc1ccccc1C(=O)Nc1ccc2c(c1)nc(CCNC(=O)c1ccco1)n2C
AC26: 1550 nM

compound: Cc1nnc2c(NCCC(C)C)nc3ccccc3n12
AC26: 6080 nM

compound: COc1ccc(NCC(=O)n2c(C)c(C)c3ccccc32)cc1
AC26: 3640 nM

compound: NC(=O)/C=C/C(=O)Nc1ccc(Cl)cc1
AC26: 15100 nM

compound: COc1cccc(C2=CC(c3cccs3)n3nnnc3N2)c1 (stereo unspecified)
AC26: 700 nM

State the recorded AC26 for this entry: O=c1c2ccccc2sc2c(CO)ccc(NCCN3CCCCC3)c12
705 nM

====

Tested on: D54 ERlucT glycosylation luciferase reporter, luminescence, 24 h
Test: N-linked glycosylation inhibitors, luciferase reporter, dose response, D54 ERlucT cells, luminescence, cherry-picks (AID 624491);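 further: signal gain reflects blocked N-linked glycosylation of a luciferase reporter; actives raise luciferase signal so AC26 marks activators of the reporter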
Each entry below lists one item and its recorded AC26 value.

compound: CC(C)(C)S(=O)(=O)N1C[C@H]2CC/C=C\C/C(c3ccccc3)=C\2[C@@H]1CCO
AC26: 1030 nM
--
compound: OC1CCCN(Cc2c3ccccc3cc3ccccc23)C1 (stereo unspecified)
AC26: 8750 nM
--
compound: COc1ccc2c(c1)c(C(=O)N/N=C/c1ccc(Br)cc1)c(C)n2C
AC26: 17100 nM
--
compound: Cc1cccn2c(=O)c3cc(C(=O)NC4CCCC4)c(=N)n(CCc4ccccc4)c3nc12
AC26: 1280 nM

# query: AC26 | item CCOC(=O)N1CCC(NC(=O)c2ccc3c(c2)N=C(C)c2c(C)ccc(C)c2S3)CC1 | system: D54 ERlucT glycosylation luciferase reporter, luminescence, 24 h
441 nM

Ok, now O=C(CSCc1ccco1)Nc1cc(C(F)(F)F)ccc1N1CCOCC1
2080 nM

Ok, now Cc1ccnc(NC(=O)C(Cc2ccccc2)NC(=O)c2ccccc2)c1 (stereo unspecified)
564 nM

Ok, now CCOc1ccc(N2C(=O)Nc3ccccc3C2(O)C(=O)N2CCN(c3ccccn3)CC2)cc1 (stereo unspecified)
880 nM

Ok, now CC1=Nc2cc(C(=O)NCC3CCCO3)ccc2Sc2ccc(C)cc21 (stereo unspecified)
662 nM

Ok, now CCOC(=O)c1cc2sccc2n1CC(=O)N1CCc2ccccc21
7500 nM

Ok, now COc1cc2cnc(-c3ccccc3)cc2cc1OC
2360 nM
